- Test system: VA-ES-BJ tumor spheroid viability
- EXPERIMENT NOTES: Anticancer human tumor VA-ES-BJ cell line growth inhibition; active = viability on the fitted dose curve at most 10% of control; inactive = the rest
- CONDITIONS: second compound 100 µM; first compound 0.0949 µM; spheroids with HUVEC and MSC
Your reply should match one of these outcome classes. Yes (active), No (inactive)

Which outcome was entered for the compound Cc1sc2c(c1C)C(c1ccc(Cl)cc1)=NC(CC(=O)Nc1ccc(O)cc1)c1nnc(C)n1-2 (centres undefined) + Cn1nnc2c(C(N)=O)ncn2c1=O in this test?
No

Test call for this compound, please: Cn1ncnc1[C@H]1c2n[nH]c(=O)c3cc(F)cc(c23)N[C@@H]1c1ccc(F)cc1 + Cn1nnc2c(C(N)=O)ncn2c1=O
Yes

Can you look up the reported call for O=C(c1cc(Cc2n[nH]c(=O)c3ccccc23)ccc1F)N1CCN(C(=O)C2CC2)CC1 + Cn1nnc2c(C(N)=O)ncn2c1=O for me?
No

Hi, do you know how CNCc1ccc(-c2cc(-c3nc(-c4ccc(S(=O)(=O)C(C)C)cc4)cnc3N)on2)cc1 + Cn1nnc2c(C(N)=O)ncn2c1=O came out in this test?
No

----------
- Test system: VA-ES-BJ tumor spheroid viability
- EXPERIMENT NOTES: Anticancer human tumor VA-ES-BJ cell line growth inhibition;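 also: spheroids exposed to compounds for seven days; percent of DMSO vehicle control viability so 100% = untreated growth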
- CONDITIONS: second compound 1 µM; first compound 0.316 µM; hits give low values; spheroids with HUVEC and MSC
MEASURE: viability, T/C (%)
Quick reminder: number only, in %, skip the unit.

Return viability, T/C measured with VA-ES-BJ tumor spheroid viability given this molecule: CC(C)n1c(=O)n(C)c2cnc3cc(F)c(-c4ccc(OCCCN5CCCCC5)nc4)cc3c21 + Cn1nnc2c(C(N)=O)ncn2c1=O
93

Param readout= viability, T/C; system= VA-ES-BJ tumor spheroid viability; entry= [2H]c1nc(C)nc([2H])c1-c1cc(NC[C@@H](C)c2cccc3c(C(=O)NC)ccnc23)ncn1 + Cn1nnc2c(C(N)=O)ncn2c1=O ; returns value.
106

State its viability, T/C on VA-ES-BJ tumor spheroid viability: COc1ccc([C@@H](O)c2cc(-c3ncnc4cc(N5CCOCC5)ccc34)c(F)cc2Cl)nn1 + Cn1nnc2c(C(N)=O)ncn2c1=O
56.8

Query the reported viability, T/C for VA-ES-BJ tumor spheroid viability; item: Cc1cc(C)c(CNC(=O)c2cc(-c3ccc(CN4CCOCC4)cc3)cc3c2cnn3C2CCCC2)c(=O)[nH]1 + Cn1nnc2c(C(N)=O)ncn2c1=O
101

What reported viability, T/C corresponds to CC1COCCN1c1cc(-c2ccnn2C)c2ccnc(-c3ccn[nH]3)c2n1 (stereo unspecified) + Cn1nnc2c(C(N)=O)ncn2c1=O on VA-ES-BJ tumor spheroid viability?
29

For VA-ES-BJ tumor spheroid viability, provide viability, T/C of COc1cc(C)[nH]c(=O)c1CN1CCc2c(Cl)cc(C(OC)C3COC3)c(Cl)c2C1=O (stereo unspecified) + Cn1nnc2c(C(N)=O)ncn2c1=O please.
72.2

----------
- Tested on: VA-ES-BJ tumor spheroid viability
- EXPERIMENT NOTES: Anticancer human tumor VA-ES-BJ cell line growth inhibition;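 also: spheroids exposed to compounds for seven days; percent of DMSO vehicle control viability so 100% = untreated growth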
- CONDITIONS: second compound 94.9 pM; first compound 0.0949 µM; hits give low values; spheroids with HUVEC and MSC
Provide the recorded viability, T/C for the entries that follow.
Response body: numeric value in %, unit text excluded.

Item Cc1sc2c(c1C)C(c1ccc(Cl)cc1)=NC(CC(=O)Nc1ccc(O)cc1)c1nnc(C)n1-2 (centres undefined) + COc1cc2c(cc1O)CCNC21CSC2c3c(OC(C)=O)c(C)c4c(c3C(COC1=O)N1C(O)C3Cc5cc(C)c(OC)c(O)c5C(C21)N3C)OCO4 has what recorded viability, T/C?
42.3

I'd like to know its viability, T/C. The molecule in question is CNCc1ccc(-c2cc(-c3nc(-c4ccc(S(=O)(=O)C(C)C)cc4)cnc3N)on2)cc1 + COc1cc2c(cc1O)CCNC21CSC2c3c(OC(C)=O)c(C)c4c(c3C(COC1=O)N1C(O)C3Cc5cc(C)c(OC)c(O)c5C(C21)N3C)OCO4
51.1

Quick one: viability, T/C for O=C(c1cc(Cc2n[nH]c(=O)c3ccccc23)ccc1F)N1CCN(C(=O)C2CC2)CC1 + COc1cc2c(cc1O)CCNC21CSC2c3c(OC(C)=O)c(C)c4c(c3C(COC1=O)N1C(O)C3Cc5cc(C)c(OC)c(O)c5C(C21)N3C)OCO4 ?
90.5

Please look up its viability, T/C: Cn1ncnc1[C@H]1c2n[nH]c(=O)c3cc(F)cc(c23)N[C@@H]1c1ccc(F)cc1 + COc1cc2c(cc1O)CCNC21CSC2c3c(OC(C)=O)c(C)c4c(c3C(COC1=O)N1C(O)C3Cc5cc(C)c(OC)c(O)c5C(C21)N3C)OCO4
52.8

----------
- System: VA-ES-BJ tumor spheroid viability
- EXPERIMENT NOTES: Anticancer human tumor VA-ES-BJ cell line growth inhibition;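 also: spheroids exposed to compounds for seven days; percent of DMSO vehicle control viability so 100% = untreated growth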
- CONDITIONS: second compound 0.003 µM; first compound 0.316 µM; hits give low values; spheroids with HUVEC and MSC
MEASURE: viability, T/C (%)
Give the value, in units of %, as a plain number.

Look up viability, T/C with VA-ES-BJ tumor spheroid viability for this compound: COc1ccc([C@@H](O)c2cc(-c3ncnc4cc(N5CCOCC5)ccc34)c(F)cc2Cl)nn1 + COc1cc2c(cc1O)CCNC21CSC2c3c(OC(C)=O)c(C)c4c(c3C(COC1=O)N1C(O)C3Cc5cc(C)c(OC)c(O)c5C(C21)N3C)OCO4
2.71

Recorded viability, T/C for COc1cc(C)[nH]c(=O)c1CN1CCc2c(Cl)cc(C(OC)C3COC3)c(Cl)c2C1=O (configuration not stated) + COc1cc2c(cc1O)CCNC21CSC2c3c(OC(C)=O)c(C)c4c(c3C(COC1=O)N1C(O)C3Cc5cc(C)c(OC)c(O)c5C(C21)N3C)OCO4 with VA-ES-BJ tumor spheroid viability, please?
1.37

// map CC1COCCN1c1cc(-c2ccnn2C)c2ccnc(-c3ccn[nH]3)c2n1 (configuration not stated) + CC[C@@]1(O)C(=O)OCc2c1cc1n(c2=O)Cc2cc3c(CN(C)C)c(O)ccc3nc2-1 to recorded viability, T/C (system: VA-ES-BJ tumor spheroid viability)
22.4

Hello, I am looking for reported viability, T/C with VA-ES-BJ tumor spheroid viability for Cc1cc(C)c(CNC(=O)c2cc(-c3ccc(CN4CCOCC4)cc3)cc3c2cnn3C2CCCC2)c(=O)[nH]1 + CC[C@@]1(O)C(=O)OCc2c1cc1n(c2=O)Cc2cc3c(CN(C)C)c(O)ccc3nc2-1 . Could you help?
95

Quick check: viability, T/C on VA-ES-BJ tumor spheroid viability, item COc1ccc([C@@H](O)c2cc(-c3ncnc4cc(N5CCOCC5)ccc34)c(F)cc2Cl)nn1 + CC[C@@]1(O)C(=O)OCc2c1cc1n(c2=O)Cc2cc3c(CN(C)C)c(O)ccc3nc2-1 ?
71

Observed viability, T/C on VA-ES-BJ tumor spheroid viability for [2H]c1nc(C)nc([2H])c1-c1cc(NC[C@@H](C)c2cccc3c(C(=O)NC)ccnc23)ncn1 + COc1cc2c(cc1O)CCNC21CSC2c3c(OC(C)=O)c(C)c4c(c3C(COC1=O)N1C(O)C3Cc5cc(C)c(OC)c(O)c5C(C21)N3C)OCO4 , please.
0.98

Query for VA-ES-BJ tumor spheroid viability: what viability, T/C does the record show for CC1COCCN1c1cc(-c2ccnn2C)c2ccnc(-c3ccn[nH]3)c2n1 (configuration not stated) + COc1cc2c(cc1O)CCNC21CSC2c3c(OC(C)=O)c(C)c4c(c3C(COC1=O)N1C(O)C3Cc5cc(C)c(OC)c(O)c5C(C21)N3C)OCO4 ?
0.77

----------
- Tested on: VA-ES-BJ tumor spheroid viability
- EXPERIMENT NOTES: Anticancer human tumor VA-ES-BJ cell line growth inhibition; active = viability on the fitted dose curve at most 10% of control; inactive = the rest;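 also: spheroids exposed to compounds for seven days; percent of DMSO vehicle control viability so 100% = untreated growth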
- CONDITIONS: second compound 94.9 pM; first compound 1 µM; spheroids with HUVEC and MSC
Hi! Could you answer with just one of these? TRUE (active), FALSE (inactive)

For this compound, state the assay outcome: [2H]c1nc(C)nc([2H])c1-c1cc(NC[C@@H](C)c2cccc3c(C(=O)NC)ccnc23)ncn1 + COc1cc2c(cc1O)CCNC21CSC2c3c(OC(C)=O)c(C)c4c(c3C(COC1=O)N1C(O)C3Cc5cc(C)c(OC)c(O)c5C(C21)N3C)OCO4
FALSE

Just curious, what result did CC1COCCN1c1cc(-c2ccnn2C)c2ccnc(-c3ccn[nH]3)c2n1 (stereo unspecified) + COc1cc2c(cc1O)CCNC21CSC2c3c(OC(C)=O)c(C)c4c(c3C(COC1=O)N1C(O)C3Cc5cc(C)c(OC)c(O)c5C(C21)N3C)OCO4 get here?
TRUE

What did the test return for COc1cc(C)[nH]c(=O)c1CN1CCc2c(Cl)cc(C(OC)C3COC3)c(Cl)c2C1=O (stereo unspecified) + COc1cc2c(cc1O)CCNC21CSC2c3c(OC(C)=O)c(C)c4c(c3C(COC1=O)N1C(O)C3Cc5cc(C)c(OC)c(O)c5C(C21)N3C)OCO4 ?
FALSE

Identify the outcome logged in this assay for the compound shown: COc1ccc([C@@H](O)c2cc(-c3ncnc4cc(N5CCOCC5)ccc34)c(F)cc2Cl)nn1 + COc1cc2c(cc1O)CCNC21CSC2c3c(OC(C)=O)c(C)c4c(c3C(COC1=O)N1C(O)C3Cc5cc(C)c(OC)c(O)c5C(C21)N3C)OCO4
FALSE

Outcome logged for CC(C)n1c(=O)n(C)c2cnc3cc(F)c(-c4ccc(OCCCN5CCCCC5)nc4)cc3c21 + COc1cc2c(cc1O)CCNC21CSC2c3c(OC(C)=O)c(C)c4c(c3C(COC1=O)N1C(O)C3Cc5cc(C)c(OC)c(O)c5C(C21)N3C)OCO4 in this assay:
FALSE

What outcome does the record of this test show for Cc1cc(C)c(CNC(=O)c2cc(-c3ccc(CN4CCOCC4)cc3)cc3c2cnn3C2CCCC2)c(=O)[nH]1 + COc1cc2c(cc1O)CCNC21CSC2c3c(OC(C)=O)c(C)c4c(c3C(COC1=O)N1C(O)C3Cc5cc(C)c(OC)c(O)c5C(C21)N3C)OCO4 ?
FALSE
